Molecular target: T1, rKv4.3N (Rattus norvegicus, UniProt Q62897)
T1 construct: expressed in transfected cells; host or cells: yeast HF7c (bait), mated with Y187 (fish)
T1 sequence (Q62897 1-180): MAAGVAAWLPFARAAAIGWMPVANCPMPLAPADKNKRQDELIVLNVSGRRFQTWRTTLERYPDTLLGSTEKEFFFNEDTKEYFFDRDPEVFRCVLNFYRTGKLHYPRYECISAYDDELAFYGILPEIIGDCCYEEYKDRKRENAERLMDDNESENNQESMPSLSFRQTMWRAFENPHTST
Experiment: Yeast two-hybrid binding and specificity test, Kv4.3 N-terminal bait
Experimental readout: binding to rKv4.3N in yeast two-hybrid assay

Molecule	Result value
Rat 1p: partial rat PCIP of 267 amino acid residues, similar to human Restin (protein) LKGARPRVVNSTCSDFNHGSALHIAASNLCLGAAKCLLEHGANPALRNRKGQVPAEVVPDPMDMSLDKAEAALVAKELRTLLEEAVPLSCTLPKVTLPNYDNVPGNLMLSALGLRLGDRVLLDGQKTGTLRFCGTTEFASGQWVGVELDEPEGKNDGSVGGVRYFICPPKQGLFASVSKVSKAVDAPPSSVTSTPRTPRMDFSRVTGKGRREHKGKKKSPSSPSLGSLQQREGAKAEVGDQVLVAGQNRDCAFLWEDRLCSRLLVWH	binds
Rat 7q: identical to RAB2 (rat RAS-related protein) (protein) MAYAYLFKYIIIGDTGVGKSCLLLQFTDKRFQPVHDLTIGVEFGARMITIDGKQIKLQIWDTAGQESFRSITRSYYRGAAGALLVYDITRRDTFNHLTTWLEDARQHSNSNMVIMLIGNKSDLESRREVKKEEGEAFAREHGLIFMETSAKTASNVEEAFINTAKEIYEKIQEGVFDINNEANGIKIGPQHAATNASHGGNQGGQQAGGGCC	binds

Taken from patent US7556938B1.
